z-score values for the compounds below.
Assay: DUSP6 inhibitors restoring Erk phosphorylation by chemical complementation, primary imaging in DUSP6-transfected HeLa (AID 609)
Conditions: HeLa MKP-3 transfected, phospho-Erk imaging KS statistic; measured here: nuclear pErk red intensity z-score; at 10 µM; stronger effect = higher value; cells stimulated with TPA for 15 min

| compound | z-score |
| --- | --- |
| Oc1c(Cl)cc(Cl)cc1CNc1ccc(Br)cn1 | -0.618 |
| O=C(CC(c1ccccc1)c1ccco1)N1CCOCC1 (stereo unspecified) | -0.229 |
| Oc1c(I)cc(I)c2cccnc12 | 1.27 |
| S=C(N=Nc1ccccc1)NNc1ccccc1 | 0.888 |

Could you tell me which z-score is on file for Cn1c(=O)[nH]c(=O)c2c1nc(N(CCO)Cc1ccccc1)n2Cc1ccccc1Cl ?
-0.515

Try Cc1ccccc1-c1nn2c(-c3ccccc3)nnc2s1 next.
0.142

Try CC(=O)C(=[N+]=[N-])C(=O)NCc1ccccc1 next.
0.485

Try CC(=O)O[C@H]1C[C@@H]2CC[C@@H]3[C@H](CC[C@@]4(C)[C@H]3C[C@H]([N+]3(C)CCCCC3)[C@@H]4OC(C)=O)[C@@]2(C)C[C@@H]1[N+]1(C)CCCCC1 next.
0.638

Try CCOC(=O)CCC(=O)O[C@H]1[C@H](O[C@@H]2[C@@H](C)[C@H](O[C@H]3C[C@@](C)(OC)[C@@H](O)[C@H](C)O3)[C@@H](C)C(=O)O[C@H](CC)[C@@](C)(O)[C@H](O)[C@@H](C)C(=O)[C@H](C)C[C@@]2(C)O)O[C@H](C)C[C@@H]1N(C)C next.
0.00972

Try CCN(CC)C(=O)CSC1=C(C#N)C(c2ccco2)C(C(=O)OCCOC)=C(C)N1 (stereo unspecified) next.
1.47

Try N#Cc1nc(-c2ccc(Cl)cc2)oc1N1CCCCC1 next.
0.966

###

Assay: inhibitors of E-selectin induction by TNFa, primary screen, imaging, HUVEC, immunofluorescence, MLSMR starter and 10KST1 sets (AID 487);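 further: 100% = median nuclei count of all wells on the same plate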
Conditions: HUVEC TNFalpha-induced E-selectin immunofluorescence imaging, at 2 µM; measured here: cell number, toxicity
nuclei count values for the molecules below.
API: value field is a number in %; no unit string.

Record excerpt, results attached:
| molecule | measurement.units | nuclei count |
| --- | --- | --- |
| CC(C)N1CC=C2C(C#N)=C(N)C(C#N)(C#N)C(c3ccccc3)C2C1 (centres undefined) | % | 218 |
| CCSc1nc(N)c(C#N)c(-c2ccccc2Cl)c1C#N | % | 107 |
| Cc1ccnc(N2CCN(c3c4c(c(C#N)c5nc6ccccc6n35)CCC4)CC2)c1 | % | 135 |
| O=C(O)CCNC(=O)c1ccccc1 | % | 97.2 |
| CCCCNC(=O)N1CCOCCOCCN(C(=O)NCCCC)CCOCC1 | % | 138 |

Would you kindly look at the next entry?
Could you tell me which nuclei count is on file for C=CCOc1nc2c(c(=O)n(C)c(=O)n2C)n1Cc1c(Cl)cccc1Cl ?
113

###

Target: Dual specificity protein phosphatase 6 (Homo sapiens) (UniProt Q16828)
Sequence (Q16828 whole entry, looked up): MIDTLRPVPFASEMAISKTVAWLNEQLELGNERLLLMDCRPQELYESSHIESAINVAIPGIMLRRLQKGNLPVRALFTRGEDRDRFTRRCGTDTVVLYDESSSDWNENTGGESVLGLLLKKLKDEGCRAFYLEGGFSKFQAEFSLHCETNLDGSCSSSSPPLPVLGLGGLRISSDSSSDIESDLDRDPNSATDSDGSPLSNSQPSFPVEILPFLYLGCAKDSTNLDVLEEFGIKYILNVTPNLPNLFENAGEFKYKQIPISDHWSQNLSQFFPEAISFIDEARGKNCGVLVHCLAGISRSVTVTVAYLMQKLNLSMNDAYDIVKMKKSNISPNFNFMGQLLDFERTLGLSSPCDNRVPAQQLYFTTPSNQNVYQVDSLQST
Assay: DUSP6 inhibitors restoring Erk phosphorylation by chemical complementation, primary imaging in DUSP6-transfected HeLa (AID 609);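 on inhibition: phospho-Erk level distribution per well compared with pooled transfected vehicle control wells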
Conditions: HeLa MKP-3 transfected, phospho-Erk imaging KS statistic; at 10 µM; stronger effect = higher value; cells stimulated with TPA for 15 min
value.kind: inhibition (%)
API: value field is a number in %; no unit string.

Record excerpt, results attached:
| molecule | target.desc | measurement.units | inhibition |
| --- | --- | --- | --- |
| Cc1cc2c(c(=O)n1CC1CCCO1)C(c1ccc3c(c1)OCO3)C(C#N)=C(N)O2 (configuration not stated) | Dual specificity protein phosphatase 6 (Homo sapiens) (UniProt Q16828) | % | -2.91 |
| COCc1[nH]nc2c1C(c1ccccc1OC)C(C#N)=C(N)O2 (configuration not stated) | Dual specificity protein phosphatase 6 (Homo sapiens) (UniProt Q16828) | % | -7.28 |
| COCCn1c(N)c(C(=O)NCC2CCCO2)c2nc3ccccc3nc21 (configuration not stated) | Dual specificity protein phosphatase 6 (Homo sapiens) (UniProt Q16828) | % | -11.5 |
| CCCn1c(=O)c2[nH]c(C3CCCC3)nc2n(CCC)c1=O | Dual specificity protein phosphatase 6 (Homo sapiens) (UniProt Q16828) | % | 3.59 |
| CCCCNC(=O)c1cc2n(n1)C(C(F)(F)F)CC(c1ccccc1)N2 (configuration not stated) | Dual specificity protein phosphatase 6 (Homo sapiens) (UniProt Q16828) | % | 1.75 |

Could you tell me which inhibition is on file for CC1(C)CC(=O)C2=C(C1)N(CC1CCCO1)C(=O)C2(O)C(F)(F)F (configuration not stated) ?
1.75

Try Cc1nc2sccn2c(=O)c1CCN1CCC(=C(c2ccccc2)c2ccc(F)cc2)CC1 next.
17.3

###

Test: inhibitors of poly I:C-induced TLR3 signaling, primary screen, cell-based, poly I:C stimulus, luciferase, 10K MLSCN set (AID 602277)
Conditions: HEK293-TLR3 RL24 IRF3 luciferase reporter, at 10 µM
Active and inactive are the calls of the source.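 How the source made its calls: active means inhibition of the reporter signal at or above 50%; inactive means inhibition below 50%.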
Select the matching outcome among active, inactive

| compound | class.label |
| --- | --- |
| CCOC(=O)c1ccc2nc(NC(NC(C)=O)(C(=O)OC)C(F)(F)F)sc2c1 (stereo unspecified) | active |
| CCCC(=O)Nc1ccc(OCC(O)CNC(C)C)c(C(C)=O)c1 (stereo unspecified) | inactive |
| COC(=O)CSc1nc(C)c(C(C)=O)cc1C#N | inactive |
| CC(NC(=O)NCCCC(=O)O)(C(F)(F)F)C(F)(F)F | inactive |
| CCOC(=O)C1(C(=O)OCC)C(c2ccccc2)CC(O)N1C(C)=O (stereo unspecified) | inactive |
| COC(=O)c1cc(Br)c(=O)n(-c2nccs2)c1 | inactive |
| CCCCCn1c2nc3ccccc3nc2c2c(=O)n(CC(C)C)cnc21 | inactive |
| CC(C)COc1nc2ccccc2nc1C(C#N)C(=O)NC1CCCCC1 (stereo unspecified) | inactive |
| N#Cc1c(N2CCOCC2)nc(N2CCCCC2)c2c1CCN(C1CCCCC1)C2 | active |
| N#Cc1nc(-c2cccs2)oc1NCCc1ccccc1 | inactive |

Now consider a different compound.
How was CC(=O)C1=C(NC(=O)c2ccccc2F)C[C@@H]2[C@H]1C2(C)C classified in this test?
inactive

###

Assay: inhibitors of E-selectin induction by TNFa, primary screen, imaging, HUVEC, immunofluorescence, MLSMR starter and 10KST1 sets (AID 487);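 further: 100% = median nuclei count of all wells on the same plate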
Settings: HUVEC TNFalpha-induced E-selectin immunofluorescence imaging, at 2 µM; measured here: cell number, toxicity
value.kind: nuclei count (%)
API: value field is a number in %; no unit string.

| molecule | measurement.units | measured.value |
| --- | --- | --- |
| C[N+]12CCC(CC1)C(OC(=O)C(O)(c1ccccc1)c1ccccc1)C2 (stereo not given) | % | 119 |
| Cc1cc(/C(O)=C2\C(=O)C(=O)N(CCN(C)C)C2c2ccncc2)ccc1OCc1ccccc1 (stereo not given) | % | 174 |
| CN(C)c1nc(OCCOC(=O)Nc2ccc(Cl)cc2Cl)nc(N(C)C)n1 | % | 122 |
| Cc1nn(C)cc1CNC(=O)c1ccc(Br)o1 | % | 111 |

Would you kindly look at the next entry?
Could you tell me which nuclei count is on file for CCOC(=O)c1ccccc1OCc1cc(/C=N/n2cncn2)ccc1OC ?
169

###

Molecular target: Solute carrier family 12 member 5 (Homo sapiens) (UniProt Q9H2X9)
Sequence (Q9H2X9 whole entry, looked up): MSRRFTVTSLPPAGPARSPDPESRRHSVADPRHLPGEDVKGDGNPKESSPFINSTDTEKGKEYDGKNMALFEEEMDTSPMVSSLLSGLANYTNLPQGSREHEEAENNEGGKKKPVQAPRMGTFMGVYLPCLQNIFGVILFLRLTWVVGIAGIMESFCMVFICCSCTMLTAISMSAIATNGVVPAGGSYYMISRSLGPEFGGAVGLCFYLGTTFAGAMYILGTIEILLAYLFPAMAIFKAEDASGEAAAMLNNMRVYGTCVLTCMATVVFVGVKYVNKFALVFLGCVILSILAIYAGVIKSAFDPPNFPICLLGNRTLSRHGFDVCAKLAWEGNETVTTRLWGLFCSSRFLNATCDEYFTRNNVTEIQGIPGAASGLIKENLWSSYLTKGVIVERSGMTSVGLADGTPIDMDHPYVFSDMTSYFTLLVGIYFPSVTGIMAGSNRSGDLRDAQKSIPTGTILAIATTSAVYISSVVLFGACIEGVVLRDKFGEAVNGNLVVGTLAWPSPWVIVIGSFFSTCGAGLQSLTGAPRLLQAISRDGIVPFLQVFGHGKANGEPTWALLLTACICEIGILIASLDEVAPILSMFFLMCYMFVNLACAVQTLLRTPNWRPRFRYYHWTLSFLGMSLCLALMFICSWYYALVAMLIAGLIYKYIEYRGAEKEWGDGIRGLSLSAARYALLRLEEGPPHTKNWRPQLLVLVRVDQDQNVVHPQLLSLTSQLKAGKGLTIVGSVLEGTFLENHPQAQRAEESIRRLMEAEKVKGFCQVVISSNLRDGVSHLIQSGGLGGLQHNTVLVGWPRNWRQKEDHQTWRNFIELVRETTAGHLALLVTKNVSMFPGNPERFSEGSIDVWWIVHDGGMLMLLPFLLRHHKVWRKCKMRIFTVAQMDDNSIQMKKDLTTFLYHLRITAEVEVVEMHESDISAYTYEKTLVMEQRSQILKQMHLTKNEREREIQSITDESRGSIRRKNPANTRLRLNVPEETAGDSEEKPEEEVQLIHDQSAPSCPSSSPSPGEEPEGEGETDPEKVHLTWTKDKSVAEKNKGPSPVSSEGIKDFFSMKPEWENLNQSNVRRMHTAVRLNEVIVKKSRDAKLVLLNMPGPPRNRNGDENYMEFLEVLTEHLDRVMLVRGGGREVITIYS
Test: KCC2 inhibitors and activators, ouabain retest, confirmation, HEK-KCC2 cells (AID 1717);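 further: slope of initial-normalized fluorescence between seconds 10 and 20 after thallium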
Details: HEK293-KCC2, thallium flux FluoZin2 fluorescence, at 10 µM, bidirectional: low = inhibitor, high = activator
This is one part of the list. Records with an inconclusive call do not appear. Active and inactive are the calls of the source.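 The calls were made as follows: active = thallium flux slope beyond 3 SD from same-plate DMSO control mean in most replicates, usually higher, sometimes lower; inconclusive = repeat tests gave conflicting results; inactive = no significant difference from controls in most replicates.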
raw Tl+ flux slope (below DMSO = inhibition, above = activation) values for the compounds below.

Record excerpt, results attached:
| compound | measured.value |
| --- | --- |
| Cc1oc(C(N)=O)cc1COc1ccc(C(N)=O)cc1 | 0.0196 (inactive) |
| CCn1c(=S)[nH]c2sc3c(c2c1=O)CCCCC3 | 0.0856 (active) |
| O=C(NC(=S)N1CCc2ccccc21)c1ccco1 | 0.0407 (active) |
| CC1CC(C)(C)n2c(O)c(N=NC(N)=S)c3cccc1c32 (stereo unspecified) | 0.0373 (active) |
| O=C(CSCc1ccccc1)N1CCc2ccccc21 | 0.0219 (active) |

Could you tell me which raw Tl+ flux slope (below DMSO = inhibition, above = activation) is on file for CCC(=O)NC(=Nc1nc2ccccc2s1)NC(=O)CC ?
0.0811 (active)
